- EXPERIMENTAL_TARGET: Shp2 (Homo sapiens (Human), UniProt Q06124)
- Sequence (Q06124 whole entry): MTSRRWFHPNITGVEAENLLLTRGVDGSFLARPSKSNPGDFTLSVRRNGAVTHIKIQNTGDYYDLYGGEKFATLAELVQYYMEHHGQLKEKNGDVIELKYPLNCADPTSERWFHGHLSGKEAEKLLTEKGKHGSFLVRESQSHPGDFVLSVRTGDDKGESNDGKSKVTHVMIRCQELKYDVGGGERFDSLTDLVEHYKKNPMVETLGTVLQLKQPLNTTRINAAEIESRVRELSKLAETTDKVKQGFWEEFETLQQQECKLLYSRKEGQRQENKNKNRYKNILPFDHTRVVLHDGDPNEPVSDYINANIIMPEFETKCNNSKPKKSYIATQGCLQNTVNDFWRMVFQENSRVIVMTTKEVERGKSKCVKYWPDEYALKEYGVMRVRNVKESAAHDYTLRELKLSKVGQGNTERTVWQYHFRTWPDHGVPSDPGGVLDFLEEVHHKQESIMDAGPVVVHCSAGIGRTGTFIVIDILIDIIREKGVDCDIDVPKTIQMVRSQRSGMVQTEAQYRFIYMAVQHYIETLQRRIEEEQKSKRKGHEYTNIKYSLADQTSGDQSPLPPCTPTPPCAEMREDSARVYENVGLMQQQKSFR
Label key: label 1 means IC50 under 10 µM; label 0 means IC50 of 10 µM or more.

Task item: Item O=C(O)C(O)CC(=O)N1CCc2cc(S(=O)(=O)N3CCN(c4cccc(Cl)c4)CC3)ccc21 (stereo not drawn) [JHE-02-067] : IC50 beneath 10 µM, strictly?
Reply: label 1

Task item: Further, for CC(C)CC(NC(=O)N1CCc2cc(S(=O)(=O)N3CCN(c4cccc(Cl)c4)CC3)ccc21)C(=O)O (stereo not drawn) [JHE-02-019A] ?
Reply: label 1

Task item: What about O=C(O)CCC(=O)N1CCc2cc(S(=O)(=O)N3CCN(c4ccccc4F)CC3)ccc21 [XW2-038D] ?
Reply: label 0

Task item: Same question for O=C(O)CCC(=O)N1CCc2cc(S(=O)(=O)N3CCN(c4ccccc4)CC3)ccc21 [XW2-038A] please.
Reply: label 0

Task item: Now try "O=C(c1cccc(Cl)c1)N1CCc2cc(S(=O)(=O)N3CCN(c4cccc(Cl)c4)CC3)ccc21" .
Reply: label 1

---
Task item: Decide: IC50 of O=C(O)C(Cc1ccccc1)NC(=O)N1CCc2cc(S(=O)(=O)N3CCN(c4cccc(Cl)c4)CC3)ccc21 (stereo not drawn) [JHE-02-019B] strictly below 10 µM?
Reply: label 1

Task item: Try the molecule CC1Cc2cc(S(=O)(=O)N3CCN(c4cccc(Cl)c4)CC3)ccc2N1C(=O)C(F)(F)F (stereo not drawn)
Reply: label 0

Task item: Now this one: "O=C(Nc1cccc(F)c1)N1CCc2cc(S(=O)(=O)N3CCN(c4cccc(Cl)c4)CC3)ccc21"
Reply: label 1

Task item: Subsequent entry: "O=C(Nc1ccccc1)N1CCc2cc(S(=O)(=O)N3CCN(c4cccc(Cl)c4)CC3)ccc21"
Reply: label 0

Task item: Follow-up item: CCOC(=O)C(CC(C)C)NC(=O)N1CCc2cc(S(=O)(=O)N3CCN(c4cccc(Cl)c4)CC3)ccc21 (stereo not drawn)
Reply: label 1

Task item: Same read-out for "O=C(O)CC[C@H](NC(=O)N1CCc2cc(S(=O)(=O)N3CCN(c4cccc(Cl)c4)CC3)ccc21)C(=O)O" ?
Reply: label 0

Task item: Moving on to the next molecule: O=C(Cc1ccc(Cl)cc1)N1CCc2cc(S(=O)(=O)N3CCN(c4cccc(Cl)c4)CC3)ccc21 [JHE-02-063B]
Reply: label 1

Task item: What do you have for "O=C(Nc1ccccc1C(F)(F)F)N1CCc2cc(S(=O)(=O)N3CCN(c4cccc(Cl)c4)CC3)ccc21" ?
Reply: label 1

Task item: Can you handle CCC(C)C(NC(=O)N1CCc2cc(S(=O)(=O)N3CCN(c4cccc(Cl)c4)CC3)ccc21)C(=O)O (stereo not drawn) next?
Reply: label 0

Task item: Another molecule to look at: O=C(O)CCC(=O)N1CCc2cc(S(=O)(=O)N3CCN(c4cccc(C(F)(F)F)c4)CC3)ccc21 [XW2-031B]
Reply: label 0

###

Observed log10 IC50 for Shp2 (Homo sapiens (Human), UniProt Q06124), reported per entry below.
A value of 2 here means IC50 of 100 in µM, since values are log10.

Task item: What log10 IC50 value was documented for this molecule, "O=C(O)CNC(=O)N1CCc2cc(S(=O)(=O)N3CCN(c4cccc(Cl)c4)CC3)ccc21" ?
Reply: 0.66

Task item: What would you report for "O=C(C1CC1)N1CCc2cc(S(=O)(=O)N3CCN(c4cccc(Cl)c4)CC3)ccc21" ?
Reply: 0.93

Task item: What do we get for CC(C)C(NC(=O)N1CCc2cc(S(=O)(=O)N3CCN(c4cccc(Cl)c4)CC3)ccc21)C(=O)O (stereo not drawn) [JHE-02-017C] ?
Reply: 0.64

Task item: Now try CCCC(=O)N1CCc2cc(S(=O)(=O)N3CCN(c4cccc(Cl)c4)CC3)ccc21 [JHE-02-033A] .
Reply: 0.89

***
Task item: Which value of log10 IC50 has been reported for "O=C(Cc1ccccc1)N1CCc2cc(S(=O)(=O)N3CCN(c4cccc(Cl)c4)CC3)ccc21" in the records?
Reply: 1.36

Task item: What about O=C(Nc1ccccc1Cl)N1CCc2cc(S(=O)(=O)N3CCN(c4cccc(Cl)c4)CC3)ccc21 [JHE-02-065B] ?
Reply: 0.51

Task item: Also check O=C(O)CCC(=O)N1CCc2cc(S(=O)(=O)N3CCN(c4cccc(Cl)c4Cl)CC3)ccc21 [XW2-038G]
Reply: 2.16

Task item: Input CCOC(=O)C(Cc1ccccc1)NC(=O)N1CCc2cc(S(=O)(=O)N3CCN(c4cccc(Cl)c4)CC3)ccc21 (stereo not drawn)
Reply: 0.84

Task item: Would you mind doing O=C(O)CCC(=O)N1CCc2cc(S(=O)(=O)N3CCN(c4cc(Cl)cc(Cl)c4)CC3)ccc21 [XW2-124B] as well?
Reply: 0.65

Task item: Also "O=C(c1ccc(Cl)cc1Cl)N1CCc2cc(S(=O)(=O)N3CCN(c4cccc(Cl)c4)CC3)ccc21" ?
Reply: 0.88

Task item: # iterate: O=C(O)CCC(=O)N1CCc2cc(S(=O)(=O)N3CCN(c4cccc(Cl)c4)CC3)ccc21 [XW2-038H]
Reply: -0.15

Task item: // same read-out, input: "O=C(Nc1ccccc1F)N1CCc2cc(S(=O)(=O)N3CCN(c4cccc(Cl)c4)CC3)ccc21"
Reply: 1.09

src = patent US9174969B2
